Consider the following binders and their measured log10 of binding signal readings.
Target: T1, UNK ZnF1-3 (human, UniProt Q9C0B0 31-174)
T1 sequence: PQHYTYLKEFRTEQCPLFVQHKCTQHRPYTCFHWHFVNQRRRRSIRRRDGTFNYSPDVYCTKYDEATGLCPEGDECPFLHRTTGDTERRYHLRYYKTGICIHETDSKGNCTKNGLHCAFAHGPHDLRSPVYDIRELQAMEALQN
Experiment: nsRBNS (natural sequence RNA bind-n-seq); RBNS binding buffer (assumed for nsRBNS): 25 mM Tris pH 7.5, 150 mM KCl, 3 mM MgCl2, 0.01% Triton X-100, 500 ug/ml BSA, 20 U/ml SUPERase-In, 4 C; UNK is unkempt and MSI1 is Musashi-1; names of the RNAs are library labels; protein concentration not given here; high values mean tight binding
The full ranking holds about 24,000 sequences; the median of “enrichment r” is about 0.99, and the highest 2% start at about 3.7. The full list was thinned out, with the highest values kept by preference.
Measurement Kind: log10 of binding signal (log10 of the value in enrichment R)

binder="chr3:100366718:100366719:-_ENSMUSG00000008763_ENSMUST00000008907|mus_hu|FALSE|FALSE (ssRNA) RNA: GGGAGUUCUACAGUCCGACGAUCAUUCUUAAAGAAAAAUCUAUUAUCUGUUAGCAUGAUUGGAGCACUGCAAUGUAUAUGCUAGUAAUAUGGUGUGUAAUUUCACAAGCAAUUUUAUGAGUUCUGCAAUUGCUAGGCUCAAACCAACAGAGGAUUGAGCAUCA" measurement_kind="log10 of binding signal" value=-0.18
binder="5036412_5036532_457_CDS_ENSMUSG00000022536_ENSMUST00000115844|mouse|control|control (ssRNA) RNA: GGGAGUUCUACAGUCCGACGAUCGCCUGAAGUCACCCUCUUCUUUCCUUCUCCCAUGUUCUUCUUCACCUUCCCUUCAGACAGGCUAAGCUUGCGUUUCUCAUCACCUGAGUUUGGCCUACUUCUCUCCUCACUGGAAUUACGCAACAGAGGAUUGAGCAUCA" measurement_kind="log10 of binding signal" value=-0.29
binder="chr11:68315578:68315579:+_ENSG00000110075_ENST00000393800|perfect_dup|motif|central (ssRNA) RNA: GGGAGUUCUACAGUCCGACGAUCUGGAGGUUCGAUACACGUCAGGAGCCUGAGCAACAAAUCCAUGAUAGCAGAAGUUCCGGUGUGCUUUAUAAUAAGGUCUACAAAAUCAUGCUUCUUCUUUAAGAAAUCCACAAUCUGUUCCAACAGAGGAUUGAGCAUCA" measurement_kind="log10 of binding signal" value=0.27
binder="chr11:6247107:6247108:+_ENSMUSG00000020456_ENSMUST00000003461|mus_mus|motif|central (ssRNA) RNA: GGGAGUUCUACAGUCCGACGAUCAAACAUAGGUUCGUCCAUCUCAUUGUGGCCAUUUCGUCGAUAACACACCAGAUCAACGGCAACAUCCUUGUGGAAGGUGUUUCUCCACUCAGCUGCCACCUUGCAUACAUACAUGACAGCCAACAGAGGAUUGAGCAUCA" measurement_kind="log10 of binding signal" value=-0.15
binder="chr16:17038481:17038482:+_ENSMUSG00000063358_ENSMUST00000069107|mus_mus|FALSE|FALSE (ssRNA) RNA: GGGAGUUCUACAGUCCGACGAUCCUUGUCCUGACCAAUUUAAGAUCUGUAUCCUGGCUGGAAUCUAGCAGUCUCUUCAAAAAUGAGUUCUUUGAGCUUCUCCUUAGGUAAGUCGUCCAACUCCAUGUCAAACUUGAAUGGCGCCAACAGAGGAUUGAGCAUCA" measurement_kind="log10 of binding signal" value=-0.14
binder="chr17:60770872:60770873:+_ENSG00000011028_ENST00000303375|hu_hu|hu_hu_hu_mus_True|1_38 (ssRNA) RNA: GGGAGUUCUACAGUCCGACGAUCUCUUUAAAAAAAAAAAAAAAAAGACAAACAAUAAUAGCACAUUUCGAGAAUCAAGAACUACAAUAGAGGGUCCAUGUCUUCGAUUUGUUCACAUCGUCCUGCACUGGGACACGACCAGGACAACAGAGGAUUGAGCAUCA" measurement_kind="log10 of binding signal" value=0.38
binder="chr17:60770872:60770873:+_ENSG00000011028_ENST00000303375|hu_hu|hu_hu_hu_mus_True|18_68 (ssRNA) RNA: GGGAGUUCUACAGUCCGACGAUCUCUUUAAAAAAAAAAAAAAAAAGACAAACAAUAAUAGCACAUUAUUUAAAAAAAGAACUACAAUAGAGGGUCCGCUUUGAGUUUUUGUUCACAACAUUGUCCCCUGGGACACGGGGACUGCAACAGAGGAUUGAGCAUCA" measurement_kind="log10 of binding signal" value=0.65
binder="chr1:153198750:153198751:+_ENSMUSG00000023150_ENSMUST00000023918|perfect_dup|FALSE|FALSE (ssRNA) RNA: GGGAGUUCUACAGUCCGACGAUCUUCUGGAUUGAGAUCAUCAAAUUUAACGUGAGAAAUUCCAUGAGGAUCACUAUCACUAUUAAAGAUUUCAAAUAAAUAGGGACUGCAGCAAGCUAGCACUGCUCUGUGUGCUAACAUUUCCAACAGAGGAUUGAGCAUCA" measurement_kind="log10 of binding signal" value=0.72
binder="chr5:145543945:145543946:-_ENSG00000133706_ENST00000545646|hu_mus|FALSE|FALSE (ssRNA) RNA: GGGAGUUCUACAGUCCGACGAUCCUGAACGGCCAGUGGUGGGAAAUAAUCAAGCCAGUGCUCUGCUUCAGAAAACUUCACUAUGUCGUCAUCAGAGAGCCCAAGGGAUUUCAUAAUGUCCCACUGGUACUUAGAAGAUCCUGCCAACAGAGGAUUGAGCAUCA" measurement_kind="log10 of binding signal" value=-0.01
binder="chr17:60770872:60770873:+_ENSG00000011028_ENST00000303375|hu_hu|hu_hu_hu_mus_True|1_18 (ssRNA) RNA: GGGAGUUCUACAGUCCGACGAUCUCUUUAAAAAAAAAAAAAAAAAGACAAACAAUAAUAGCACAUUUCGAGAAUCAAGAACUACAAUAGAGGGUCCGCUUUGAGUUUUUGUUCACAACAUUGUCCCCUGGGACACGACCAGGACAACAGAGGAUUGAGCAUCA" measurement_kind="log10 of binding signal" value=0.54
binder="24817595_24818005_4380_CDS_ENSG00000090905_ENST00000315183|human|control|control (ssRNA) RNA: GGGAGUUCUACAGUCCGACGAUCCUGAUGGAGUGGCUGCUGCUGAGAUGGUGGAGUCUGCUGCUUCACCAACAGGUUUGGAUCAAGUUGACGAGAUUGUUGCAUCAUUUGCUGCUGCACACUAAGAGGUCGACCCUGCUGGUCCAACAGAGGAUUGAGCAUCA" measurement_kind="log10 of binding signal" value=-0.13
binder="chr2:48034705:48034706:-_ENSG00000138081_ENST00000403359|hu_hu|FALSE|FALSE (ssRNA) RNA: GGGAGUUCUACAGUCCGACGAUCCAUAGAAAGAACGUACAUACUGGGACAUGAGUACAGUUACAGCAAGUCUAGGUGUGCUAACAAAACAGGGCACAUUCAAGUACAGUAAGAUUUUGCUUGAAAUUAAAAACAAACUACAUGCAACAGAGGAUUGAGCAUCA" measurement_kind="log10 of binding signal" value=0.10
binder="chr17:60770872:60770873:+_ENSG00000011028_ENST00000303375|hu_hu|hu_hu_hu_mus_True|1_68 (ssRNA) RNA: GGGAGUUCUACAGUCCGACGAUCUCUUUAAAAAAAAAAAAAAAAAGACAAACAAUAAUAGCACAUUAUUUAAAAAAAGAACUACAAUAGAGGGUCCGCUUUGAGUUUUUGUUCACAUCGUCCUGCACUGGGACACGACCAGGACAACAGAGGAUUGAGCAUCA" measurement_kind="log10 of binding signal" value=0.55
